system: BT-549 breast; test: NCI-60 one-dose screen, 48 h (100 = growth as untreated, 0 = no growth, -100 = all killed); details: 10 µM unless noted
The panel holds about 83,000 compounds, 20% with a hit somewhere; the sample as a whole holds those more often.
Listing: growth of selected molecules

Molecule	growth, %
C=C(CNCCc1ccc(O)cc1)[C@@H]1CC[C@]2(CO)CC[C@]3(C)[C@H](CC[C@@H]4[C@@]5(C)CCC(=O)C(C)(C)[C@@H]5CC[C@]43C)[C@@H]12	79.5
CN1CCN(C(=O)C(C)(C)c2ccc(C(=O)Nc3cn4cc(-c5ccncc5)ccc4n3)cc2)CC1	7.86
Cc1ccc(CNc2c3ccccc3nc3ccccc23)cc1	71.3
CCSc1oc(C)nc1[P+](c1ccccc1)(c1ccccc1)c1ccccc1	12.4
COc1ccc(C2=CN3CC=CC3CC2=O)cc1 (stereo not given)	105
Cc1cccc[n+]1C1c2ccccc2-c2ccccc21	86.8
COc1cc(OC)c(C(=O)C(CN(C)C)CN(C)C)cc1OC	74.5
CNCc1cccc2c1OCCOCCOCCNS(=O)(=O)c1ccc(cc1)-c1cnc(N)c(n1)C(=O)N2	28.3
O=C1c2ccccc2C(=O)c2c1cc1c(c2[N+](=O)[O-])OCO1	15.8
O=C(Nc1ncc(Cc2ccccc2)s1)c1ccc2c(c1)OCCCO2	48.8
CCN1C(=O)N(CC)C2C1NN=c1s/c(=C\c3ccc[nH]3)c(=O)n12 (stereo not given)	51.2
CC/C=C\CCC/C=C1/C(=O)C=C[C@@H]1C/C=C\CCCC(=O)OC	-25
CCCCNC(=O)Oc1ccc(/C(=C(/C)Cc2ccc(OC)cc2)c2ccc(OCCN3CCCCC3)cc2)cc1	81.9
N=c1c(S(=O)(=O)c2ccccc2)cc2c(=O)n3ccccc3nc2n1CC1CCCO1 (stereo not given)	101
O=S(=O)(Nc1cc(Sc2cccc3cccnc23)c(O)c2ccccc12)c1ccccc1	31.4

* * *

tested on: HCC-2998 colon; test: NCI-60 one-dose screen, 48 h; details: 10 µM unless noted
Compounds without any hit were thinned out: in the full panel of roughly 83,000, 20% have a hit. The source made the active and inactive calls. Rule for the calls: active = growth percent below 10; inactive = the rest.
Possible outcomes: 1 for active, 0 for inactive

Compound	Class label
COc1ccc2c(c1)c(-c1nc(-c3c[nH]c4ncccc34)cs1)cn2CCCN1CCOCC1	0
Cc1nn(-c2cc(NC3CCC(O)CC3)c3c(=O)[nH]c(CCC(F)(F)F)cc3c2)c2c1C(=O)CC(C)(C)C2 (stereo not given)	0
CCCCC#Cc1c(I)n(C)c(=O)[nH]c1=O	1
O=C(Oc1ccc(CCl)cc1)c1ccccc1	1
CC(C)(C)n1cc(-c2ccnc(NCCCNS(=O)(=O)c3cccc4ccccc34)c2)c(-c2cccc(F)c2)n1	0
C#CCOc1cccc(-c2ncnc3cc(NC(=O)C=C)ccc23)c1	0
CCCCCCCCCCCCCOC(=O)c1c(C)[nH]c(/C=C2\N=C(c3ccc[nH]3)C=C2OC)c1C	0
O=C(CC(=O)Nc1cccc(C(=O)O)c1)Nc1cccc(C(=O)O)c1	0
O=C(NC1CC(F)C1)c1cc2cccnc2n1-c1ccc(Cl)c(Cl)c1 (stereo not given)	0
N#CSc1c[nH]c2cccc(/C=C/C(=O)/C=C(O)/C=C/c3cccc4[nH]cc(SC#N)c34)c12	1

* * *

growth values by entry
tested on: MALME-3M melanoma; experiment: NCI-60 one-dose screen, 48 h (100 = growth as untreated, 0 = no growth, -100 = all killed); details: 10 µM unless noted
This is part of a sample that, as a whole, favours compounds with a hit. Of some 83,000 tested, about 20% had one in any assay. Activity calls are given as the source filed them. How the source made its calls: active means growth percent below 10; inactive means the rest.
Observation type: growth

Mol smiles	Measured target	Observation type	Reported result
O=C(/C=C/c1ccc(Oc2ccc(Br)cc2)cc1)c1ccc(Br)cc1	MALME-3M melanoma	growth	98% (inactive)
CN1CCN(Cc2ccc(NC(=O)c3cncc(C#Cc4cnc(N)c5ccc(F)cc45)c3)cc2C(F)(F)F)CC1	MALME-3M melanoma	growth	-17.2% (active)
Oc1c(CN2CCCC2)cc(CSCc2ccccc2)c2cccnc12	MALME-3M melanoma	growth	-2.43% (active)

* * *

system: SNB-75 CNS; test: NCI-60 one-dose screen, 48 h; conditions: 10 µM unless noted
Compounds without any hit were thinned out: in the full panel of roughly 83,000, 20% have a hit. The source made the active and inactive calls. How the source made its calls: active means growth percent below 10; inactive means the rest.
Labels: 1 (active), -1 (inactive)

Compound	Class label
O=C(Nc1ncc(Cc2cc(C(F)(F)F)ccc2Cl)s1)c1cccs1	-1
C=CCOC(=O)C1=C(C)N(CC)C(=O)NC1c1c(Cl)n(C)c2ccccc12 (stereo not given)	-1
Nc1nc(N)c2c(n1)NC(c1cccc(Nc3ccnc4cc(C(F)(F)F)ccc34)c1)CC(c1ccc(Br)cc1)=N2 (stereo not given)	-1
CCN(CC)CCCN1C(=O)c2c(c(C)c3c(oc4ccc(O)cc43)c2C)C1=O	-1
c1ccc(CCNc2c3ccccc3nc3ccccc23)cc1	-1
CCN1C(=O)N(CC)C2C1NN=c1s/c(=C\c3ccc(C(F)(F)F)cc3)c(=O)n12 (stereo not given)	-1
COc1ccccc1C(=O)Nc1cccc(NC(=O)c2ccoc2C)c1	-1
Cc1c(CC(=S)N2CCOCC2)nnn1-c1cccc(C(F)(F)F)c1	-1
CCCCNc1nnc2n(Cc3ccccc3)c(=O)c3c4c(sc3n12)CCCC4	-1
C=C1C(=O)O[C@H]2[C@H]1CC/C(COC(=O)c1cc3cc(Cl)ccc3[nH]1)=C\CC[C@@]1(C)O[C@@H]21	1
C#CC#CC#CC#CC#CC#CC#CC#CCC1OC[C@H](COC(=O)O[C@@H](C(=O)O[C@H]2C[C@@]3(O)[C@@H](OC(=O)c4ccccc4)[C@@H]4[C@]5(OC(C)=O)CO[C@@H]5C[C@H](O)[C@@]4(C)C(=O)[C@H](OC(C)=O)C(=C2C)C3(C)C)[C@@H](NC(=O)c2ccccc2)c2ccccc2)O1 (stereo not given in full)	1
COC(=O)c1c2c(n3ccccc13)C(=O)c1ccccc1C2=O	-1
C/C=C(\C)C(=O)N[C@H]1C(O)C[C@]2(C)C3CC[C@@]4(C)C(CC[C@@H]4C(C)N(C)C)C3CCC2C1O (stereo not given in full)	-1
CCC1S/C(=N\N=C(\C)c2cc3cc(Cl)ccc3o2)N(c2ccccc2)C1=O (stereo not given)	-1
CC1CCN(C(=O)CCCl)c2ccccc21 (stereo not given)	-1
Cc1ccc(C2CC(c3nc(-c4ccc(Cl)cc4)oc3C)=NN2C(=O)c2ccncc2)cc1 (stereo not given)	-1
Nc1nc(N)c2c(n1)NC(c1ccc(Cl)cc1)C1CCc3ccccc3C1=N2 (stereo not given)	-1
Nc1nc(N)c2c(n1)NC(c1cccc(Nc3ccnc4cc(C(F)(F)F)ccc34)c1)CC(c1ccccc1)=N2 (stereo not given)	-1
NC1=Nc2cc(OCCCCN3Cc4ccccc4C3)c(OCC3CC3)cc2C12CCCC2	-1
COc1ccc(/C=C/C(=O)c2cc(OC)c(OC)c(OC)c2)cc1OCC(=O)Nc1nc2ccc(OC(F)(F)F)cc2s1	1

* * *

tested on: SK-MEL-28 melanoma; test: NCI-60 one-dose screen, 48 h; details: 10 µM unless noted
The panel holds about 83,000 compounds, 20% with a hit somewhere; the sample as a whole holds those more often. Calls of active or inactive are those of the source. Rule for the calls: active = growth percent below 10; inactive = the rest.
Outcomes: active, inactive

Compound	Measured target	Class label
Cn1c(=O)c2[nH]c(SCC(=O)Nc3ccc(C(=O)/C=C/c4ccccc4Cl)cc3)nc2n(C)c1=O	SK-MEL-28 melanoma	inactive
COc1ccc(C(=O)/C=C/c2ccc(Cl)cc2)cc1S(=O)(=O)Nc1c(N)nc(SC)[nH]c1=O	SK-MEL-28 melanoma	inactive
CCN1CCN(C(=O)[C@]23CC[C@@H](C)[C@H](C)[C@@H]2C2=CC[C@@H]4[C@@]5(C)C/C(=C/c6cccnc6)C(=O)C(C)(C)[C@@H]5CC[C@@]4(C)[C@]2(C)CC3)CC1	SK-MEL-28 melanoma	inactive
COc1ccc(C(=O)c2cc3c(N)c(C(=O)Nc4ccccc4)sc3nc2C)cc1	SK-MEL-28 melanoma	inactive
C=CN(C(=O)N1CCN(c2cc3c(cc2F)c(=O)c(C(=O)O)cn3C2CC2)CC1)c1nc(-c2ccc(OC)cc2)cs1	SK-MEL-28 melanoma	inactive
Cc1ccc2nc(/C(C#N)=C(/CCCO)NC(Cc3ccccc3)C(=O)OCc3ccccc3)[nH]c(=O)c2c1 (configuration not stated)	SK-MEL-28 melanoma	inactive
O=C(Cc1cccc(OC(F)(F)F)c1)Nc1ccc(CCCCc2nnc(NC(=O)Cc3ccccn3)s2)nn1	SK-MEL-28 melanoma	inactive
CSc1nc(C)c([N+](=O)[O-])c(N)n1	SK-MEL-28 melanoma	inactive
Cc1cc(Nc2ccc(C(=O)N3CCCC3)cc2)nc(NCCCNc2ccnc3cc(Cl)ccc23)n1	SK-MEL-28 melanoma	inactive
O=C(CN1CCCCCC1)Nc1nc2ccc(NCc3ccc(Cl)cc3)cc2s1	SK-MEL-28 melanoma	inactive
N=C(N)c1ccc(-c2ccc(-c3ccccc3)s2)cc1	SK-MEL-28 melanoma	inactive
O=C(O)/C=C/C(=O)Nc1cccc(Cn2nnc3cc(Cl)c(Cl)cc32)c1	SK-MEL-28 melanoma	inactive
Cc1c2ccncc2c(C)c2c1c1cc(CO)ccc1n2C	SK-MEL-28 melanoma	active
O=C(Cn1nnc2ccccc21)N/N=C/c1c[nH]c2ccccc12	SK-MEL-28 melanoma	inactive
NS(=O)(=O)c1ccc(NC(=O)/C(=C\c2ccc(Cl)cc2Cl)NC(=O)c2ccccc2)cc1	SK-MEL-28 melanoma	inactive
COc1cccc(NCc2nnc(Nc3ccc(Cl)cc3)c3ccccc23)c1	SK-MEL-28 melanoma	active
COCCn1cc(-c2csc(-c3c[nH]c4ccc(Br)cc34)n2)c2cccnc21	SK-MEL-28 melanoma	inactive
COc1cc(NC(=O)c2cncnc2Nc2ccc3c(ccn3Cc3ccccn3)c2)cc(OC)c1	SK-MEL-28 melanoma	inactive
O=S(=O)(NCCCNc1nccc(-c2c(-c3cccc(F)c3)nc3occn23)n1)c1ccc(F)cc1	SK-MEL-28 melanoma	inactive
COc1ccc(-c2ccc(-c3ccc(C(=N)N)nc3)s2)cc1Cl	SK-MEL-28 melanoma	inactive
CC/C(Cc1ccccc1)=C(\c1ccc(OCCCN(C)C)cc1)c1ccc(OC(=O)NCc2ccccc2)cc1	SK-MEL-28 melanoma	inactive
CCCCCCCCCCCCCCCCCCOc1ccccc1CC(=O)NCC[N+]1(C)CCCCC1	SK-MEL-28 melanoma	inactive
COc1cccc(Nc2ncnc3cc(NC(=O)CCl)ccc23)c1	SK-MEL-28 melanoma	active
O=C1c2ccccc2C(=O)c2c1cc1c(c2[N+](=O)[O-])OCO1	SK-MEL-28 melanoma	inactive
C#CC#CC#CC#CC#CC#CC#CC#CC[C@@H]1OC[C@@H](COC(=O)O[C@@H](C(=O)O[C@H]2C[C@@]3(O)[C@@H](OC(=O)c4ccccc4)[C@@H]4[C@]5(OC(C)=O)CO[C@@H]5C[C@H](O)[C@@]4(C)C(=O)[C@H](OC(C)=O)C(=C2C)C3(C)C)[C@@H](NC(=O)c2ccccc2)c2ccccc2)O1	SK-MEL-28 melanoma	inactive
O=C(Nc1ccccc1[N+](=O)[O-])c1ccc(Cl)c(Cl)c1	SK-MEL-28 melanoma	inactive
O=c1c2ccccc2c(=O)c2c1sc1c(=O)c3ccc(O)cc3c(=O)c12	SK-MEL-28 melanoma	active
